These data points were gathered from ChEMBL document CHEMBL1154472.

# System Tested: Human immunodeficiency virus type 1 integrase (Human immunodeficiency virus 1, UniProt Q7ZJM1)
# Protocol: Inhibition of HIV1 integrase 3'-end processing activity
pIC50: −log10 of the molar value.
Endpoint Name: pIC50

Compound	pIC50
Cc1cc2c(cc1Cl)SC(C(=O)c1cccc([N+](=O)[O-])c1)=NS2(=O)=O	4.24
Cc1cc2c(cc1Cl)SC(C(=O)c1cccc([N+](=O)[O-])c1)NS2(=O)=O (stereo not given)	4.49
Cc1cc2c(cc1Cl)SC(C(=O)c1ccc(Cl)cc1)=NS2(=O)=O	4.52

[1] COc1ccc(C(=O)C2NS(=O)(=O)c3cc(C)c(Cl)cc3S2)cc1 (stereo not given)
[2] Cc1cc2c(cc1Cl)SC(C(=O)c1ccc(Cl)c(Cl)c1)=NS2(=O)=O
Req: When 1 and 2 are compared, which has the higher number for pIC50? Use the label to indicate which entry you chose.
Resp: 2

====

# System Tested: UniProt Q7ZJM1
# Protocol: Inhibition of HIV1 integrase 3'-end processing activity
pIC50: −log10 of the molar value.
Endpoint Name: pIC50

Example molecules with recorded pIC50:
Molecule	System Tested	Endpoint Name	Quantitative Result
Cc1cc2c(cc1Cl)SC(C(=O)c1ccc(Cl)cc1)NS2(=O)=O (stereo not given)	UniProt Q7ZJM1	pIC50	5.22
Cc1cc(Cl)cc2c1S(=O)(=O)N=C(C(=O)c1ccc(Cl)cc1)S2	UniProt Q7ZJM1	pIC50	4.66
O=C(C1=NS(=O)(=O)c2ccc(Cl)cc2S1)c1ccc2ccccc2c1	UniProt Q7ZJM1	pIC50	5.10

[A] Cc1cc2c(cc1Cl)SC(C(=O)c1ccc(Cl)c(Cl)c1)NS2(=O)=O (stereo not given)
[B] Cc1cc2c(cc1Cl)SC(C(=O)c1ccc(Br)cc1)NS2(=O)=O (stereo not given)
Req: Could you tell me which of these two has the smaller pIC50 figure? First: A Second: B Lab note: record the label of whichever item you select.
Resp: A

[1] Cc1cc(Cl)cc2c1S(=O)(=O)N=C(C(=O)c1ccc(Cl)c(Cl)c1)S2
[2] Cc1cc2c(cc1Cl)SC(C(=O)c1ccc3ccccc3c1)NS2(=O)=O (stereo not given)
Req: Hey, which is lower on measured pIC50, 1 or 2 ? Write the label of whichever entry you select.
Resp: 2

====

In this section, each of the compounds is paired with its reported IC50.
# System Tested: Human immunodeficiency virus type 1 integrase (Human immunodeficiency virus 1, UniProt Q7ZJM1, H114A)
# Protocol: Inhibition of HIV1 integrase H114A mutant 3'-end processing activity
Numbers only here, please. The scale is µM.

Req: Bench note: what IC50 did O=C(c1ccc(Cl)c(Cl)c1)C1NS(=O)(=O)c2ccc(Cl)cc2S1 (stereo not given) show?
Resp: 18

====

# System Tested: Human immunodeficiency virus type 1 integrase (Human immunodeficiency virus 1, UniProt Q7ZJM1, Y99S)
# Protocol: Inhibition of HIV1 integrase Y99S mutant 3'-end processing activity
Endpoint Name: pIC50
The scale used: pIC50 is minus the common logarithm of the concentration in molar units.

Study these solved cases before continuing.
Compound	Endpoint Name	Quantitative Result
Cc1cc2c(cc1Cl)SC(C(=O)c1ccccc1)=NS2(=O)=O	pIC50	4.05
Cc1cc(Cl)cc2c1S(=O)(=O)N=C(C(=O)c1ccc3ccccc3c1)S2	pIC50	4.15
O=C(c1ccc(Cl)cc1)C1NS(=O)(=O)c2ccc(Cl)cc2S1 (stereo not given)	pIC50	4.00
Cc1cc(Cl)cc2c1S(=O)(=O)NC(C(=O)c1ccc3ccccc3c1)S2 (stereo not given)	pIC50	4.15

Req: // returns reported pIC50 for input Cc1cc2c(cc1Cl)SC(C(=O)c1ccc(Cl)cc1)NS2(=O)=O (stereo not given)
Resp: 4.05
